Origin of measurements: patent US3987055A

System: rat testis tubules
Test: glucose oxidation (glucose-U-14C) by rat testis tubules in vitro
Type: cell-based
Settings: in words

Molecule: COc1ccc2c3c(ccc2c1)-c1[nH]ncc1CC3 [Compound 11b]
depression of glucose oxidation in vitro: comparable to saline

Molecule: CC12CCc3cc(O)ccc3C1=NNC2=O (racemic)
depression of glucose oxidation in vitro: comparable to saline

----------
Experiment: effects on testis function: body, testis and seminal vesicle weight
Type: in vivo, mice (ICR-Swiss adult male)
Conditions: average; 0.2 mg per day s.c., 10 days

Molecule: CC12CCc3cc(O)ccc3C1=NNC2=O (racemic)
Mg Testes Per g Body Wt.: 7.28 Mg per g
//
Molecule: COc1ccc2c3c(ccc2c1)C1=NCCC1(C)CC3 (stereo not shown)
Mg Testes Per g Body Wt.: 6.32 Mg per g
//
Molecule: Oc1ccc2c(c1)CCc1cn[nH]c1-2 [Compound 2, 4,5-Dihydro-1H-benz[g]indazol-7-ol]
Mg Testes Per g Body Wt.: 6.73 Mg per g
//
Molecule: COc1ccc2c3c(ccc2c1)-c1[nH]ncc1CC3 [Compound 11b]
Mg Testes Per g Body Wt.: 6.67 Mg per g
